Target: GRP receptor (Rattus norvegicus, UniProt P52500)
Sequence (P52500 whole entry): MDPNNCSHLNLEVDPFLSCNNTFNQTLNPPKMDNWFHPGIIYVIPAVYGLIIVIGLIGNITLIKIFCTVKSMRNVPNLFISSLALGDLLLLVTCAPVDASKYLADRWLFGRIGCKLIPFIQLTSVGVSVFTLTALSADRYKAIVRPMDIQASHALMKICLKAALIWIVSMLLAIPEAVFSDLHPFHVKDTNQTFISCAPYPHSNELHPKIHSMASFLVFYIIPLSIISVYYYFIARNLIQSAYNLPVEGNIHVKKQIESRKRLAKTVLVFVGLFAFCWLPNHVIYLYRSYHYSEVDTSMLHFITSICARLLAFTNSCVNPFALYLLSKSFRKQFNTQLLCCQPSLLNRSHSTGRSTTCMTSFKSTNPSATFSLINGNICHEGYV
Experiment: Amylase release from rat pancreatic acini (alone or Bn-stimulated)
Format: cell-based
Parameters: from tissue; host or cells: dispersed pancreatic acini
Settings: analog 10 μM plus Bn 0.3 nM, Bn without analog 15 ± 1
Where a SMILES comes first, the peptide text is derived from it. Bridges are numbered along the chain shown (N, C = ends). [ ]: non-standard residue; d: D form. 2Nal = N[C@@H](Cc1ccc2ccccc2c1)C(=O)O; d2Nal = N[C@H](Cc1ccc2ccccc2c1)C(=O)O
Readout label: Amylase Release, analog Plus Bn (0.3 nM) (% total)
Express it in % total; write the number only.

>>> meas_value("CC(C)[C@@H]1NC(=O)[C@H](CCCCN)NC(=O)[C@@H](Cc2c[nH]c3ccccc23)NC(=O)[C@H](Cc2ccc(O)cc2)NC(=O)[C@@H](NC(=O)[C@H](N)Cc2ccc3ccccc3c2)CSSC[C@@H](C(=O)N[C@@H](Cc2ccc3ccccc3c2)C(N)=O)NC1=O [Analog #1] (H-[d2Nal]CY[dW]KVC[2Nal]-NH2; disulfide 2-7)")
15
>>> meas_value("CC(C)[C@@H]1NC(=O)[C@H](CCCCN)NC(=O)[C@@H](Cc2c[nH]c3ccccc23)NC(=O)[C@H](Cc2ccc(O)cc2)NC(=O)[C@@H](NC(=O)[C@@H](N)Cc2ccc3ccccc3c2)CSSC[C@@H](C(=O)N[C@H](Cc2ccc3ccccc3c2)C(N)=O)NC1=O [Analog #9] (H-[2Nal]CY[dW]KVC[d2Nal]-NH2; disulfide 2-7)")
16
>>> meas_value("CC(C)[C@@H]1NC(=O)[C@H](CCCCN)NC(=O)[C@@H](Cc2c[nH]c3ccccc23)NC(=O)[C@H](Cc2ccc(O)cc2)NC(=O)[C@@H](NC(=O)[C@H](N)Cc2ccc3ccccc3c2)CSSC[C@@H](C(=O)N[C@H](Cc2ccc3ccccc3c2)C(N)=O)NC1=O [Analog #8] (H-[d2Nal]CY[dW]KVC[d2Nal]-NH2; disulfide 2-7)")
14
>>> meas_value("CC(C)[C@@H]1NC(=O)[C@H](CCCCN)NC(=O)[C@@H](Cc2c[nH]c3ccccc23)NC(=O)[C@H](Cc2ccc(O)cc2)NC(=O)[C@@H](NC(=O)[C@H](N)Cc2ccc3ccccc3c2)CSSC[C@@H](C(=O)N[C@H](C(N)=O)[C@@H](C)O)NC1=O")
12
>>> meas_value("CC(C)[C@@H]1NC(=O)[C@H](CCCCN)NC(=O)[C@@H](Cc2c[nH]c3ccccc23)NC(=O)[C@H](Cc2ccc(O)cc2)NC(=O)[C@@H](NC(=O)[C@H](N)Cc2ccc3ccccc3c2)CSSC[C@H](C(=O)N[C@@H](Cc2ccc3ccccc3c2)C(N)=O)NC1=O [Analog #11] (H-[d2Nal]CY[dW]KV[dC][2Nal]-NH2; disulfide 2-7)")
14

Alright, here's another compound for you.
Give its Amylase Release, analog Plus Bn (0.3 nM) value. Item: C[C@@H](O)[C@H](NC(=O)[C@@H]1CSSC[C@H](NC(=O)[C@H](N)Cc2ccc3ccccc3c2)C(=O)N[C@@H](Cc2ccc(O)cc2)C(=O)N[C@H](Cc2c[nH]c3ccccc23)C(=O)N[C@@H](CCCCN)C(=O)N[C@@H](Cc2ccc3ccccc3c2)C(=O)N1)C(N)=O 13

###

The compounds listed here are annotated with their Ki.
Target: rat NMB receptor (Rattus norvegicus, UniProt P24053)
Construct: a full length NMB-preferring bombesin receptor clone generated from rat esophagus; expressed in transfected cells
Sequence (P24053 whole entry): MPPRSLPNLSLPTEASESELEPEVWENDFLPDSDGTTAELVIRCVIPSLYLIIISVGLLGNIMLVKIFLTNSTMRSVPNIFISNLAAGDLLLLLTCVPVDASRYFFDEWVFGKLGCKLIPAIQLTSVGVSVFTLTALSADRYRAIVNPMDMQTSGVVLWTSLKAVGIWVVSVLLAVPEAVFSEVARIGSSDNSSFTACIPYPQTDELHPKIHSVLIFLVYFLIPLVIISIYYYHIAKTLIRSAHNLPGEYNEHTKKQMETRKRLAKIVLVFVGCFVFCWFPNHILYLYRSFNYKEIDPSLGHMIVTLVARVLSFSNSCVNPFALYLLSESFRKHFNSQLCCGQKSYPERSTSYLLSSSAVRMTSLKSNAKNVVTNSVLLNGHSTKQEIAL
Test: Binding of 125I-[D-Tyr0]NMB to NMB-R transfected BALB 3T3 cells
Details: NMB-R transfected BALB 3T3 cells; Ki by Cheng method; read-out: Ki 125I-NMB Binding, NMB Receptor, Transfected Cells
Where a SMILES comes first, the peptide text is derived from it. Bridges are numbered along the chain shown (N, C = ends). [ ]: non-standard residue; d: D form. 2Nal = N[C@@H](Cc1ccc2ccccc2c1)C(=O)O; d2Nal = N[C@H](Cc1ccc2ccccc2c1)C(=O)O; Lys(Et2) = CCN(CC)CCCC[C@H](N)C(=O)O
Express it in µM; write the number only.

>>> meas_value("CCN(CC)CCCC[C@@H]1NC(=O)[C@@H](Cc2c[nH]c3ccccc23)NC(=O)[C@H](Cc2ccc(O)cc2)NC(=O)[C@@H](NC(=O)[C@H](N)Cc2ccccc2)CSSC[C@@H](C(=O)N[C@@H](Cc2ccc3ccccc3c2)C(N)=O)NC(=O)[C@H]([C@@H](C)O)NC1=O [Analog #16] (H-[dF]CY[dW][Lys(Et2)]TC[2Nal]-NH2; disulfide 2-7)")
3.95

Alright, here's another compound for you.
Give its Ki value. Item: CC(C)[C@@H]1NC(=O)[C@H](CCCCN)NC(=O)[C@@H](Cc2c[nH]c3ccccc23)NC(=O)[C@H](Cc2ccc(O)cc2)NC(=O)[C@@H](NC(=O)[C@H](N)Cc2ccc3ccccc3c2)CSSC[C@H](C(=O)N[C@@H](Cc2ccc3ccccc3c2)C(N)=O)NC1=O [Analog #11] (H-[d2Nal]CY[dW]KV[dC][2Nal]-NH2; disulfide 2-7) 1.08
